# Test system: HCC-1806
# Measurement notes: MTT cytotoxicity / anti-proliferation assay
# Type: cell-based
# Assay setup: Homo sapiens, HCC1806, 72 h, HCC-1806, MTT, read-out: IC50, cancer cell viability
Measured metric: IC50
The reply must contain the numeric value and, after it, the unit.

Returns the measured IC50 for the input molecule. Input: O=C(NCc1ccc(NC(=O)c2cc(F)ccc2N2CCCC2)cc1)OCc1cccnc1 [F8]
21.1 µM

* * *

# Measurement notes: In vivo acute toxicity study
# Parameters: species or system Kunming mice
# Assay setup: both sexes, Kunming, mouse, in vivo; intravenous injection, KM mice, 14 days
Measured metric: LD50 at 14 days (mg/kg)
One number for each entry, in mg/kg.

Returns the measured LD50 at 14 days for the input molecule. Input: O=C(NCc1ccc(NC(=O)c2cc(F)ccc2N2CCCC2)cc1)OCc1cccnc1 [F8·2HCl]
153

* * *

# Measurement notes: Pharmacokinetic study
# Assay type: in vivo, SD rats
# Assay setup: SD rats, oral administration 100 mg/kg; 100 mg/kg
Measured metric: peak plasma concentration (µg/mL)
Give bare numbers, in µg/mL.

Compound | Unit label | peak plasma concentration
O=C(NCc1ccc(NC(=O)c2cc(F)ccc2N2CCCC2)cc1)OCc1cccnc1 [F8] | µg/mL | 0.4

--- query ---
Returns the measured peak plasma concentration for the input compound. Input: O=C(NCc1ccc(NC(=O)c2cc(F)ccc2N2CCCC2)cc1)OCc1cccnc1 [F8·2HCl]
0.58

* * *

# Measurement notes: Pharmacokinetic study
# Type: in vivo, SD rats
# Assay setup: male, Sprague-Dawley, rat, plasma, oral, 100 mg/kg, SD rats, oral 100 mg/kg vs iv 20 mg/kg; read-out: bioavailability
Measured metric: bioavailability (%)
Give bare numbers, in %.

Returns the measured bioavailability for the input compound. Input: O=C(NCc1ccc(NC(=O)c2cc(F)ccc2N2CCCC2)cc1)OCc1cccnc1 [F8]
3.23

* * *

# System: MDA-MB-231
# Measurement notes: MTT cytotoxicity / anti-proliferation assay
# Assay type: cell-based
# Assay setup: MDA-MB-231, MTT, 72 h; read-out: IC50, cancer cell viability
Measured metric: pIC50
Answers are plain numbers, as −log10 of the molar value.

// fetch MDA-MB-231 pIC50 for O=C(NCc1ccc(NC(=O)c2cc(F)ccc2N2CCCC2)cc1)OCc1cccnc1 [F8·2HCl]
4.33

* * *

# Measurement notes: Pharmacokinetic study
# Assay type: in vivo, SD rats
# Assay setup: male, Sprague-Dawley, rat, plasma, iv, 20 mg/kg, SD rats, 20 mg/kg, iv; read-out: Tmax
# Method: 7–8-week Male SD rats weighing 180–220 g were allowed for this experiment. The rats were fasted 12 h except for water. […] Intravenous injection group: before administration, 2 min, 5 min, 15 min, 30 min, 1 h, 2 h, 4 h, 8 h, 12 h, 24 h. […] The samples were detected by liquid-mass spectrometry analysis system. […] Flow rate of 0.4 mL/min, column temperature: room temperature, according to the drug plasma concentration data, calculated pharmacokinetic parameters using DAS 2.0 software. […]
Measured metric: Tmax
The reply must contain the numeric value and, after it, the unit.

Returns the measured Tmax for the input compound. Input: O=C(NCc1ccc(NC(=O)c2cc(F)ccc2N2CCCC2)cc1)OCc1cccnc1
1.8 min

* * *

# Tested on: MDA-MB-468
# Measurement notes: MTT cytotoxicity / anti-proliferation assay
# Assay type: cell-based
# Assay setup: MDA-MB-468, MTT, 72 h; read-out: IC50, cancer cell viability
Measured metric: pIC50
Numbers only, as −log10 of the molar value.

Returns the measured pIC50 for the input compound. Input: O=C(NCc1ccc(NC(=O)c2cc(F)ccc2N2CCCC2)cc1)OCc1cccnc1 [F8·2HCl]
5.85

* * *

# Measurement notes: In vivo acute toxicity study
# Design: species or system Kunming mice
# Assay setup: both sexes, Kunming, mouse, in vivo, ip; intraperitoneal injection, KM mice, 14 days
Measured metric: LD50 at 14 days (mg/kg)
Give bare numbers, in mg/kg.

Returns the measured LD50 at 14 days for the input molecule. Input: O=C(NCc1ccc(NC(=O)c2cc(F)ccc2N2CCCC2)cc1)OCc1cccnc1 [F8·2HCl]
303

* * *

# Measurement notes: Pharmacokinetic study
# Type: in vivo, SD rats
# Assay setup: male, Sprague-Dawley, rat, plasma, iv, 20 mg/kg, SD rats, 20 mg/kg, iv; read-out: Cmax
# Description: 7–8-week Male SD rats weighing 180–220 g were allowed for this experiment. The rats were fasted 12 h except for water. […] Intravenous injection group: before administration, 2 min, 5 min, 15 min, 30 min, 1 h, 2 h, 4 h, 8 h, 12 h, 24 h. […] The samples were detected by liquid-mass spectrometry analysis system. […] Flow rate of 0.4 mL/min, column temperature: room temperature, according to the drug plasma concentration data, calculated pharmacokinetic parameters using DAS 2.0 software. […]
Measured metric: Cmax (ng/mL)
Numbers only, in ng/mL.

Returns the measured Cmax for the input molecule. Input: O=C(NCc1ccc(NC(=O)c2cc(F)ccc2N2CCCC2)cc1)OCc1cccnc1
12100

* * *

# Measurement notes: Pharmacokinetic study
# Type: in vivo, SD rats
# Assay setup: male, Sprague-Dawley, rat, plasma, po, 100 mg/kg, area under the concentration-time curve (AUC0-t), SD rats, oral administration 100 mg/kg; heading: area under the concentration-time curve
Measured metric: AUC(0-t)

Returns the measured AUC(0-t) for the input compound. Input: O=C(NCc1ccc(NC(=O)c2cc(F)ccc2N2CCCC2)cc1)OCc1cccnc1
~1.13 µg·h/mL

* * *

# Measurement notes: Pharmacokinetic study
# Type: in vivo, SD rats
# Assay setup: male, Sprague-Dawley, rat, plasma, oral, 100 mg/kg, SD rats, 100 mg/kg, route ip (methods: intragastric)
Measured metric: half-life (h)
Give bare numbers, in h.

Returns the measured half-life for the input molecule. Input: O=C(NCc1ccc(NC(=O)c2cc(F)ccc2N2CCCC2)cc1)OCc1cccnc1 [F8]
2.66

* * *

# Measurement notes: Pharmacokinetic study
# Assay type: in vivo, SD rats
# Assay setup: male, Sprague-Dawley, rat, plasma, iv, 20 mg/kg, SD rats
# Method: 7–8-week Male SD rats weighing 180–220 g were allowed for this experiment. The rats were fasted 12 h except for water. […] Intravenous injection group: before administration, 2 min, 5 min, 15 min, 30 min, 1 h, 2 h, 4 h, 8 h, 12 h, 24 h. […] The samples were detected by liquid-mass spectrometry analysis system. […] Flow rate of 0.4 mL/min, column temperature: room temperature, according to the drug plasma concentration data, calculated pharmacokinetic parameters using DAS 2.0 software. […]
Measured metric: AUC(0-inf) (ng·h/mL)
Give bare numbers, in ng·h/mL.

Returns the measured AUC(0-inf) for the input compound. Input: O=C(NCc1ccc(NC(=O)c2cc(F)ccc2N2CCCC2)cc1)OCc1cccnc1
6990

* * *

# Measurement notes: Pharmacokinetic study
# Assay type: in vivo, SD rats
# Assay setup: male, Sprague-Dawley, rat, plasma, oral, 100 mg/kg, SD rats, 100 mg/kg, route ip (methods: intragastric); read-out: Cmax
# Procedure: 7–8-week Male SD rats weighing 180–220 g were allowed for this experiment. The rats were fasted 12 h except for water. […] Intravenous injection group: before administration, 2 min, 5 min, 15 min, 30 min, 1 h, 2 h, 4 h, 8 h, 12 h, 24 h. […] The samples were detected by liquid-mass spectrometry analysis system. […] Flow rate of 0.4 mL/min, column temperature: room temperature, according to the drug plasma concentration data, calculated pharmacokinetic parameters using DAS 2.0 software. […]
Measured metric: Cmax (ng/mL)
One number for each entry, in ng/mL.

Returns the measured Cmax for the input compound. Input: O=C(NCc1ccc(NC(=O)c2cc(F)ccc2N2CCCC2)cc1)OCc1cccnc1
400
